Each record here notes measured Protein Kinase, Ka ' Bovine.
Test system: cAMP-dependent protein kinase
Experiment: Activation of cAMP-dependent protein kinase isolated from beef brain
Type: biochemical, bovine
Details: ratio of Ka of cAMP to Ka of test compound; bovine brain cAMP-dependent kinase

Worked examples follow.
INSERT INTO assay_data (compound, observed_result) VALUES
  ('CC(=NNC(N)=S)c1nc2c(=O)[nH]c(N)nc2n1[C@@H]1O[C@@H]2COP(=O)(O)O[C@H]2[C@H]1O', '< 0.005'),
  ('CC(=NNc1ccccc1)c1nc2c(=O)[nH]c(N)nc2n1[C@@H]1O[C@@H]2COP(=O)(O)O[C@H]2[C@H]1O', '< 0.005'),
  ('CC(=O)c1nc2c(=O)[nH]c(N)nc2n1[C@@H]1O[C@@H]2COP(=O)(O)O[C@H]2[C@H]1O', '< 0.001'),
  ('CC(C)C(O)c1nc2c(=O)[nH]c(N)nc2n1[C@@H]1O[C@@H]2COP(=O)(O)O[C@H]2[C@H]1O (stereo partly drawn)', '< 0.001'),
  ('Cc1nc2c(=O)[nH]c(N)nc2n1[C@@H]1O[C@@H]2COP(=O)(O)O[C@H]2[C@H]1O [Compound 2, 8-Methylguanosine 3'',5''-Cyclic Phosphate]', 0.015);

Alright, here's another compound for you.
Query :: GET /values?readout=Protein Kinase, Ka ' Bovine&system=cAMP-dependent protein kinase&item= "Nc1nc2c(nc(C(=O)c3ccccc3)n2[C@@H]2O[C@@H]3COP(=O)(O)O[C@H]3[C@H]2O)c(=O)[nH]1"
Result :: < 0.005

* * *

Target: cyclic nucleotide phosphodiesterase
Experiment: Inhibition of cAMP hydrolysis by beef heart cyclic nucleotide phosphodiesterase
Format: biochemical
Settings: beef heart enzyme; 50% inhibition of cleavage of cAMP, cAMP = 1.6 × 10^-7 M; read-out: Phosphodiesterase Inhibition, I50 Heart
Endpoint: IC50 (µM)
All answers are understood in µM, so give the number only.

Look over these answered cases.
INSERT INTO results (compound, assay_system, endpoint, result_units, observed_result) VALUES
  ('CC(O)c1nc2c(=O)[nH]c(N)nc2n1[C@@H]1O[C@@H]2COP(=O)(O)O[C@H]2[C@H]1O (some centres unmarked)', 'cyclic nucleotide phosphodiesterase', 'IC50', 'µM', 170),
  ('CC(=NNC(N)=O)c1nc2c(=O)[nH]c(N)nc2n1[C@@H]1O[C@@H]2COP(=O)(O)O[C@H]2[C@H]1O', 'cyclic nucleotide phosphodiesterase', 'IC50', 'µM', 125),
  ('Nc1nc2c(nc(Cc3ccccc3)n2[C@@H]2O[C@@H]3COP(=O)(O)O[C@H]3[C@H]2O)c(=O)[nH]1 [Compound 4, 8-Benzylguanosine 3'',5''-Cyclic Phosphate]', 'cyclic nucleotide phosphodiesterase', 'IC50', 'µM', 140),
  ('CC(C)C(O)c1nc2c(=O)[nH]c(N)nc2n1[C@@H]1O[C@@H]2COP(=O)(O)O[C@H]2[C@H]1O (some centres unmarked)', 'cyclic nucleotide phosphodiesterase', 'IC50', 'µM', 38);

Query :: Any idea what its IC50 is? The compound is "NC(=O)c1nc2c(=O)[nH]c(N)nc2n1[C@@H]1O[C@@H]2COP(=O)(O)O[C@H]2[C@H]1O"
Result :: 100
